# Tested on: HeLa Kyoto;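 note: HeLa Kyoto cells synchronized by double thymidine or nocodazole block, proteins quantified by TMT10plex mass spectrometry, three independent biological replicates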
# ASSAY TEXT: melting temperature (median over replicates), in situ; higher = more thermally stable
# CONDITION LABEL: cell cycle stage: mitosis

MACROMOLECULE SEQUENCE	melting temperature [°C]
MEAVLTEELDEEEQLLRRHRKEKKELQAKIQGMKNAVPKNDKKRRKQLTEDVAKLEKEMEQKHREELEQLKLTTKENKIDSVAVNISNLVLENQPPRISKAQKRREKKAALEKEREERIAEAEIENLTGARHMESEKLAQILAARQLEIKQIPSDGHCMYKAIEDQLKEKDCALTVVALRSQTAEYMQSHVEDFLPFLTNPNTGDMYTPEEFQKYCEDIVNTAAWGGQLELRALSHILQTPIEIIQADSPPIIVGEEYSKKPLILVYMRHAYGLGEHYNSVTRLVNIVTENCS [OTUD6B]	50
MDAPRQVVNFGPGPAKLPHSVLLEIQKELLDYKGVGISVLEMSHRSSDFAKIINNTENLVRELLAVPDNYKVIFLQGGGCGQFSAVPLNLIGLKAGRCADYVVTGAWSAKAAEEAKKFGTINIVHPKLGSYTKIPDPSTWNLNPDASYVYYCANETVHGVEFDFIPDVKGAVLVCDMSSNFLSKPVDVSKFGVIFAGAQKNVGSAGVTVVIVRDDLLGFALRECPSVLEYKVQAGNSSLYNTPPCFSIYVMGLVLEWIKNNGGAAAMEKLSSIKSQTIYEIIDNSQGFYVCPVEPQNRSKMNIPFRIGNAKGDDALEKRFLDKALELNMLSLKGHRSVGGIRASLYNAVTIEDVQKLAAFMKKFLEMHQL [PSAT1]	55.6
